solubility (g/100 g solution) reference
- ASSAY NAME: xn = mol fraction of the nth substance listed, in the solute-free solvent
- STATED CONDITIONS: 293.15 K; x2 = 0.6
Form field (numeric): enter value without unit.

Worked examples follow.
> print(dat)
                                   compound  experimental.value
1  Cl.NC(Cc1ccccc1)C(=O)OCc1ccccc1 (stereo not given) + CO + CC(C)=O                6.53
2        Cc1ncc(CO)c(CO)c1O.Cl + O + CC(C)O                4.83
3  Cc1c(Br)c(=O)n(C2CCCC2)c2nc(Cl)ncc12 + CC1=CC(=O)CC(C)(C)C1 + CC(C)O               0.947
4  CCOC(=O)OC1=C(c2cc(C)ccc2C)C(=O)NC12CCC(OC)CC2 (stereo not given) + CC(C)=O + O                  13

Okay, next one:
Need solubility (g/100 g solution) of CCOc1ccccc1C(N)=O + CO + CC#N , thanks. 8.88

====

- ASSAY NAME: xn = mol fraction of the nth substance listed, in the solute-free solvent
- STATED CONDITIONS: 308.15 K; x2 = 0.5454
MEASUREMENT NAME: solubility (g/100 g solution)
Number only, please.

Solved cases (3 shown):
> print(dat)
                                   compound               measurement.name  experimental.value
1  c1ccc(-c2ccc(C(c3ccccc3)n3ccnc3)cc2)cc1 (centres undefined) + CC(C)O + O  solubility (g/100 g solution)                3.63
2      Nc1nc2ccc(OC(F)(F)F)cc2s1 + CCCO + O  solubility (g/100 g solution)                65.3
3  Cc1nc2n(c(=O)c1CCN1CCC(c3noc4cc(F)ccc34)CC1)CCCC2 + CC(C)O + O  solubility (g/100 g solution)                12.3

Kindly review the next compound as well.
Look up solubility (g/100 g solution) for this compound: c1ccc(-c2ccc(C(c3ccccc3)n3ccnc3)cc2)cc1 (centres undefined) + CCCO + O 3.98

====

Entries and their measured solubility (g/100 g solution) follow.
- ASSAY NAME: xn = mol fraction of the nth substance listed, in the solute-free solvent
- STATED CONDITIONS: 298.15 K; x2 = 0.9
Reply with the value as a number alone.

Reference set (2 entries):
> print(dat)
                                   molecule               measurement.name  experimental.value
1        Cc1ncc(CO)c(CO)c1O.Cl + O + CC(C)O  solubility (g/100 g solution)                14.4
2  Cc1c(Br)c(=O)n(C2CCCC2)c2nc(Cl)ncc12 + CC1=CC(=O)CC(C)(C)C1 + CC(C)O  solubility (g/100 g solution)                1.54

Item CCOc1ccccc1C(N)=O + CC#N + CC(C)O has what recorded solubility (g/100 g solution)? 4.71

What measured solubility (g/100 g solution) goes with NC(=O)NC1NC(=O)NC1=O (stereo unspecified) + O + CO ? 0.506

Give the measured solubility (g/100 g solution) of Cc1c(Br)c(=O)n(C2CCCC2)c2nc(Cl)ncc12 + C1CCOC1 + CCO . 6.67

Find the recorded solubility (g/100 g solution) belonging to Cc1ncc(CO)c(CO)c1O.Cl + O + CCCO and report it. 16

====

- ASSAY NAME: xn = mol fraction of the nth substance listed, in the solute-free solvent
- STATED CONDITIONS: 313.15 K; x2 = 0.9
Measured solubility (g/100 g solution) accompanies every entry in the list below.
Could you keep your reply to the number by itself?

These solved cases illustrate the format of a correct answer.
> print(dat)
                                   compound  experimental.value
1          Cc1ncc(CO)c(CO)c1O.Cl + O + CCCO                24.1
2      Cl.N=C(N)NC(=N)N1CCOCC1 + O + CC(C)O                50.8
3  Cc1c(Br)c(=O)n(C2CCCC2)c2nc(Cl)ncc12 + C1CCOC1 + CCO                10.4

Entry Cc1c(Br)c(=O)n(C2CCCC2)c2nc(Cl)ncc12 + CC1=CC(=O)CC(C)(C)C1 + CC(C)O : reported solubility (g/100 g solution) = ? 3.52

====

- ASSAY NAME: xn = mol fraction of the nth substance listed, in the solute-free solvent
- STATED CONDITIONS: 313.15 K; x2 = 0.5
Below: a set of entries, each annotated with reported solubility (g/100 g solution).
Answer using only a numeral; do not append any unit.

Check out these entries, answers already filled in.
> print(dat)
                                   compound               measurement.name  experimental.value
1             CCOc1ccccc1C(N)=O + CO + CC#N  solubility (g/100 g solution)                19.3
2         CCOc1ccccc1C(N)=O + CC#N + CC(C)O  solubility (g/100 g solution)                  13
3  Cc1c(Br)c(=O)n(C2CCCC2)c2nc(Cl)ncc12 + CC1=CC(=O)CC(C)(C)C1 + CC(C)O  solubility (g/100 g solution)                2.65
4          Cc1ncc(CO)c(CO)c1O.Cl + O + CCCO  solubility (g/100 g solution)                 7.5
5  Cc1c(Br)c(=O)n(C2CCCC2)c2nc(Cl)ncc12 + C1CCOC1 + CCO  solubility (g/100 g solution)                7.13

We next turn to a different compound, shown below.
Find the recorded solubility (g/100 g solution) belonging to CCOc1ccccc1C(N)=O + CCO + CC#N and report it. 16.2

====

- ASSAY NAME: xn = mol fraction of the nth substance listed, in the solute-free solvent
- STATED CONDITIONS: 308.15 K; x2 = 0.9
MEASUREMENT NAME: solubility (g/100 g solution)
Enter a number only.

Worked cases, answers included:
> print(dat)
                                   compound               measurement.name  experimental.value
1         CCOc1ccccc1C(N)=O + CC#N + CC(C)O  solubility (g/100 g solution)                7.99
2            CCOc1ccccc1C(N)=O + CCO + CC#N  solubility (g/100 g solution)                 9.7
3  NC(=O)NC1NC(=O)NC1=O (stereo not given) + O + CO  solubility (g/100 g solution)               0.836
4             CCOc1ccccc1C(N)=O + CO + CC#N  solubility (g/100 g solution)                15.1
5  Cc1c(Br)c(=O)n(C2CCCC2)c2nc(Cl)ncc12 + C1CCOC1 + CCO  solubility (g/100 g solution)                9.04

Reported solubility (g/100 g solution) for Cc1ncc(CO)c(CO)c1O.Cl + O + CC#N : what is it? 22.7

====

- ASSAY NAME: xn = mol fraction of the nth substance listed, in the solute-free solvent
- STATED CONDITIONS: 308.15 K; x2 = 0.5
Each entry below carries its recorded solubility (g/100 g solution).
Form rule: numeric answer, no unit written next to it.

> print(dat)
                             compound               measurement.name  experimental.value
1       CCOc1ccccc1C(N)=O + CO + CC#N  solubility (g/100 g solution)                15.6
2  Cc1ncc(CO)c(CO)c1O.Cl + O + CC(C)O  solubility (g/100 g solution)                5.16

// next entry
Look up solubility (g/100 g solution) for this compound: Cc1c(Br)c(=O)n(C2CCCC2)c2nc(Cl)ncc12 + CCOC(C)=O + CCO 0.984

====

- ASSAY NAME: xn = mol fraction of the nth substance listed, in the solute-free solvent
- STATED CONDITIONS: 308.15 K; x2 = 0.4
MEASUREMENT NAME: solubility (g/100 g solution)

Some compounds with known solubility (g/100 g solution) results, for comparison:
> print(dat)
                                   compound               measurement.name  experimental.value
1         CCOc1ccccc1C(N)=O + CC#N + CC(C)O  solubility (g/100 g solution)                10.1
2  CCOC(=O)OC1=C(c2cc(C)ccc2C)C(=O)NC12CCC(OC)CC2 (centres undefined) + CC(C)=O + O  solubility (g/100 g solution)                12.8
3  CCOC(=O)OC1=C(c2cc(C)ccc2C)C(=O)NC12CCC(OC)CC2 (centres undefined) + CCO + O  solubility (g/100 g solution)                6.59
4  Cc1c(Br)c(=O)n(C2CCCC2)c2nc(Cl)ncc12 + CCOC(C)=O + CCO  solubility (g/100 g solution)               0.888
5  Cc1c(Br)c(=O)n(C2CCCC2)c2nc(Cl)ncc12 + C1CCOC1 + CCO  solubility (g/100 g solution)                5.26
6             CCOc1ccccc1C(N)=O + CO + CC#N  solubility (g/100 g solution)                14.4
7  CCOC(=O)OC1=C(c2cc(C)ccc2C)C(=O)NC12CCC(OC)CC2 (centres undefined) + CC(C)O + O  solubility (g/100 g solution)                10.4
8          Cc1ncc(CO)c(CO)c1O.Cl + O + CC#N  solubility (g/100 g solution)                4.04

Can you look up the measured solubility (g/100 g solution) of Cc1ncc(CO)c(CO)c1O.Cl + O + CCCO for me? 4.15

Returns the measured solubility (g/100 g solution) for the input compound. Input: Cc1c(Br)c(=O)n(C2CCCC2)c2nc(Cl)ncc12 + CC1=CC(=O)CC(C)(C)C1 + CC(C)O 1.79

What does the record list as solubility (g/100 g solution) for Cc1ncc(CO)c(CO)c1O.Cl + O + CC(C)O ? 2.86

Requested read-out: solubility (g/100 g solution). Entry: CCOc1ccccc1C(N)=O + CCO + CC#N 12.4

Field request: solubility (g/100 g solution) | item: N#CCNC(=O)c1cnccc1C(F)(F)F + CCOC(C)=O + CCO 11.6

Consider the compound shown here: CCOC(=O)OC1=C(c2cc(C)ccc2C)C(=O)NC12CCC(OC)CC2 (centres undefined) + CO + O What is its recorded solubility (g/100 g solution)? 1.44

These measurements were taken from the CheMixHub drug solubility set.
